- assay-target: human recombinant BACE2 (Homo sapiens (Human), UniProt Q9Y5Z0)
- Sequence (Q9Y5Z0 63-518): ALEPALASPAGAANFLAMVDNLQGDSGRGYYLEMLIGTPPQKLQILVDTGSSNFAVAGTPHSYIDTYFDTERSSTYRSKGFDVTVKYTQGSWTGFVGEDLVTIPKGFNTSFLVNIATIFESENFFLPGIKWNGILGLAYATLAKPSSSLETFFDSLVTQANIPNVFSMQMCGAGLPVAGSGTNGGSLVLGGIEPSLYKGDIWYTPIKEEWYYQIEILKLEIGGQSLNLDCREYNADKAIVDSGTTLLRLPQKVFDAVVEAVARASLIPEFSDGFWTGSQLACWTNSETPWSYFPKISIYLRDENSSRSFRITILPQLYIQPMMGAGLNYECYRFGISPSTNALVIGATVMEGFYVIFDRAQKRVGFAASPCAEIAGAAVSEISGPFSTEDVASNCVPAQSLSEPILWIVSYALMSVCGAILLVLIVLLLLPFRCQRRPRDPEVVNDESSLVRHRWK
- assay-details: In vitro enzymatic BACE2 FRET assay
- Type: biochemical
- experimental-setup: read-out: IC50 IP (μM) BACE2 enzyme
metric-name: IC50 (µM)

{"substance-smiles": "COC[C@]12C[C@H]1[C@@](C)(c1cc(Nc3nccc4cc(OCc5ncco5)cnc34)cc(F)c1F)N=C(N)S2", "IC50 / µM": 0.359}
{"substance-smiles": "Cc1nc(COc2cnc3c(Nc4cc(F)c(F)c([C@@]5(C)N=C(N)S[C@@]6(C(F)F)C[C@@H]56)c4)nccc3n2)no1", "IC50 / µM": 0.091}
{"substance-smiles": "C[C@]1(c2cc(Nc3nccc4cc(C#N)cnc34)cnc2F)N=C(N)S[C@@]2(C(F)F)C[C@@H]12", "IC50 / µM": 0.00303}
{"substance-smiles": "C#C[C@@H](C)Oc1cnc(C(=O)Nc2ccc(F)c([C@@]3(C)N=C(N)S[C@@]4(COC)C[C@H]43)c2)cn1", "IC50 / µM": 0.336}
{"substance-smiles": "C#CCOc1cnc2c(Nc3cnc(F)c([C@@]4(C)N=C(N)S[C@@]5([C@@H](O)C(F)(F)F)C[C@H]54)c3)ncnc2c1", "IC50 / µM": 0.177}

(I) C[C@]1(c2cc(Nc3nccc4cc(C#N)cnc34)cnc2F)N=C(N)S[C@@]2(CF)C[C@H]21
(II) C[C@@H](Oc1cnc2c(Nc3cc(F)c(F)c([C@@]4(C)N=C(N)S[C@@]5(C(F)F)C[C@@H]45)c3)nccc2n1)c1ncco1
INPUT: Please indicate which has the smaller reported IC50: I , or II . Please respond with the label that marks your chosen entry.
OUTPUT: I

(A) C#CCOc1cnc(C(=O)Nc2cc(F)c(F)c([C@@]3(C)N=C(N)S[C@@]4(C(N)=O)C[C@H]43)c2)cn1
(B) COC[C@]12C[C@H]1[C@@](C)(c1cc(Nc3nccc4cc(OCc5cnco5)cnc34)cc(F)c1F)N=C(N)S2
(C) C#CCOc1cnc2c(Nc3cc(F)c(F)c([C@@]4(C)N=C(N)S[C@@]5(COC)C[C@H]54)c3)ncnc2c1
(D) C#CCOc1cnc2c(Nc3cc(F)c(F)c([C@@]4(C)N=C(N)S[C@@]5(CF)C[C@H]54)c3)nccc2n1
(E) COC(=O)[C@]12C[C@H]1[C@@](C)(c1cc(NC(=O)c3ccc(Cl)cn3)cc(F)c1F)N=C(N)S2
INPUT: // smallest IC50 at index 0, largest at the end Return the labels ranked in the requested order, please.
OUTPUT: E, A, D, C, B

(P) COCCOc1cnc2c(Nc3ccc(F)c([C@@]4(CF)N=C(N)S[C@@]5(COC)C[C@H]54)c3)ncnc2c1
(Q) C#CCOc1cnc(C(=O)Nc2ccc(F)c([C@@]3(C)N=C(N)S[C@@]4(C#N)C[C@H]43)c2)cn1
INPUT: I'm curious, which of these has a smaller IC50 number: P or Q ? Please identify the chosen entry by its label.
OUTPUT: Q
(Q: 0.00448 µM, P: 0.519 µM)
